organism: Mus musculus; experiment: The compound was evaluated for analgesic response in the mouse vas deferens assay (max response 80.6+/-4.0%); assay type: functional, organism-based
PARAMETER_MEASURED: EC50 (µM)
Reply with just the number (in µM).

So for `CCC[C@H]1C2Cc3ccc(OC(C)=O)c4c3[C@]1(CCN2C)CO4` , the logged EC50 turned out to be 0.0852

====

organism: Mus musculus; experiment: Compound was tested in phenylquinone antinociceptive assay; type: functional
PARAMETER_MEASURED: ED50 (mg/kg)
API: value field is a number in mg/kg; no unit string.

Reference set, count: 3
- STRUCTURE: "CCC[C@H]1C2Cc3ccc(O)c4c3[C@]1(CCN2CCc1ccccc1)CO4"
  MEASURED_NUMBER: 0.2
- STRUCTURE: "CCC[C@H]1C2Cc3cccc4c3[C@]1(CCN2C)CO4"
  MEASURED_NUMBER: 2.9
- STRUCTURE: "CCC[C@H]1C2Cc3ccc(O)c4c3[C@]1(CCN2C)CO4"
  MEASURED_NUMBER: 0.1

Lookup result for `CCC[C@H]1C2Cc3ccc(OC)c4c3[C@]1(CCN2C)CO4` ; measured ED50: 0.8
